# credit: ChEMBL document CHEMBL4619778

# TARGET_UNDER_TEST: UniProt P50391
# Sequence (P50391 whole entry): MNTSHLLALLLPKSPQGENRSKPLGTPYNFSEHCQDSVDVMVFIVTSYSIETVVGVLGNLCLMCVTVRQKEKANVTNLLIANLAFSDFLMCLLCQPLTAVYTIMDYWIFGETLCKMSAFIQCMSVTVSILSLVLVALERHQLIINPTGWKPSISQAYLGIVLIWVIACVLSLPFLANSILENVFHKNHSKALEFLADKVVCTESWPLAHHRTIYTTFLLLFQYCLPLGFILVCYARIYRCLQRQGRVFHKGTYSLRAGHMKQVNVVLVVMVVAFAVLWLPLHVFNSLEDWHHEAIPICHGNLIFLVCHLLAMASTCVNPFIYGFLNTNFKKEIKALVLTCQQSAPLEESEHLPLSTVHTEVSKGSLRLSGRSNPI
# EXPERIMENT_SUMMARY: Agonist activity at human Y4R expressed in HEK293T cells co-expressing ARRB1 assessed as induction of beta-arrestin1 recruitment measured for 40 mins by D-luciferin based luminescence assay
# Format: cell-based, HEK-293T
# RUN_PARAMETERS: read-out: pEC50 (converted)
Peptide text beside a SMILES is read from it.
MEASUREMENT_LABEL: EC50

MOLECULE	ASSAY_RESULT
CC(=O)N[C@@H](CCCNC(=N)N)C(=O)N[C@@H](Cc1ccc(O)cc1)C(=O)N[C@@H](CCCNC(N)=O)C(=O)N[C@@H](CC(C)C)C(=O)N[C@@H](CCCNC(=N)N)C(=O)N[C@@H](Cc1ccc(O)cc1)C(N)=O	> 31.6 µM

Consider the following items and state reported EC50 for each.
1. CC(=O)N[C@@H](CCCNC(=N)N)C(=O)N[C@@H](Cc1ccc(O)cc1)C(=O)N[C@@H](CCCNC(=N)N)C(=O)N[C@@H](CC(C)C)C(=O)N[C@@H](CCCNC(=N)N)C(=O)N[C@@H](Cc1ccc(O)cc1)C(N)=O
2. N=C(N)NCCC[C@H](NC(=O)[C@H](Cc1c[nH]c2ccccc12)NC(=O)[C@@H](N)CCCNC(=N)N)C(=O)N[C@@H](Cc1ccc(O)cc1)C(N)=O (H-RWRY-NH2)
3. CC(C)C[C@@H](NC(=O)[C@@H](N)CCCNC(=N)N)C(=O)N[C@@H](CCCNC(=N)N)C(=O)N[C@@H](Cc1ccc(O)cc1)C(N)=O
4. CC(C)C[C@H](NC(=O)[C@@H](N)CCCNC(=N)N)C(=O)N[C@@H](CCCNC(=N)N)C(=O)N[C@H](Cc1ccc(O)cc1)C(N)=O
5. CC(C)C[C@H](NC(=O)[C@@H](N)CCCNC(=N)N)C(=O)N[C@H](CCCNC(=N)N)C(=O)N[C@@H](Cc1ccc(O)cc1)C(N)=O

1: 0.162 µM; 2: > 31.6 µM; 3: > 31.6 µM; 4: > 31.6 µM; 5: > 31.6 µM
